EXPERIMENTAL TARGET: Tdp1 (Homo sapiens, UniProt Q9NUW8)
Construct: inferred from pET 16B vector and Ni-chelating resin; made in house; host or cells: Escherichia coli BL21(DE3)
Sequence (Q9NUW8 whole entry): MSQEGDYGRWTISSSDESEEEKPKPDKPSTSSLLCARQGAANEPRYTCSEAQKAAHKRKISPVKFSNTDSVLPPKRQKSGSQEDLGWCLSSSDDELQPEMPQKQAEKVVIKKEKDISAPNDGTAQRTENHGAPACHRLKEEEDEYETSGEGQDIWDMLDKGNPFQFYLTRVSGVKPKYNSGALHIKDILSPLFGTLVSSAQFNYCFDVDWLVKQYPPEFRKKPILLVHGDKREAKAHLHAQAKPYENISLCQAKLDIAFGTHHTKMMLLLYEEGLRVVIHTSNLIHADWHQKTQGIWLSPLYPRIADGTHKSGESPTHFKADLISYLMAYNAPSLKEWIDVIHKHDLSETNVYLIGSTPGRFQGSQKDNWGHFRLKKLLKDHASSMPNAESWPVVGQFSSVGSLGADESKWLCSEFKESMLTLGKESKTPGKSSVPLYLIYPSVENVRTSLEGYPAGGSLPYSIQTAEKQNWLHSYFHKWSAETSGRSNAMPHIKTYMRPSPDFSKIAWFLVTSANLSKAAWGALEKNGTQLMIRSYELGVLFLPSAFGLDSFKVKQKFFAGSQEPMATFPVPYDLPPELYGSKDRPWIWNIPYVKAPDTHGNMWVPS
ASSAY OVERVIEW: Real-time oligonucleotide biosensor-based Tdp1 inhibition assay
Format: biochemical
CONDITION CONTEXT: Table 1, (4S) diastereomer
pIC50: −log10 of the molar value.
RESULT TYPE: pIC50

[A] C[C@@H]1CC[C@@H]2[C@@H](C1)O[C@@H](c1ccc(NC(=O)c3ccccc3)s1)C[C@]2(C)O [(4S)-12]
[B] C[C@@H]1CC[C@@H]2[C@@H](C1)O[C@@H](c1ccc(NC(=O)C(F)(F)F)s1)C[C@]2(C)O [(4S)-11]
Returns the identifier with the smallest measured pIC50 among A and B . Give the label under which the chosen entry appears.
A
(A: 5.30, B: 5.85)

[1] C[C@@H]1CC[C@@H]2[C@H](C1)O[C@@H](c1ccc(NC(=O)C34CC5CC(CC(C5)C3)C4)s1)C[C@]2(C)O [(4S)-13]
[2] CC(=O)Nc1ccc([C@H]2C[C@](C)(O)[C@@H]3CC[C@@H](C)C[C@H]3O2)s1 [(4S)-10]
Returns the identifier with the smallest measured pIC50 among 1 and 2 . Give the label under which the chosen entry appears.
2
(2: 5.24, 1: 5.91)

====

EXPERIMENTAL TARGET: Tdp1 (Homo sapiens)
Construct: inferred from pET 16B vector and Ni-chelating resin; made in house; host or cells: Escherichia coli BL21(DE3)
ASSAY OVERVIEW: Real-time oligonucleotide biosensor-based Tdp1 inhibition assay
Format: biochemical
CONDITION CONTEXT: Table 1, (4R) diastereomer
pIC50: −log10 of the molar value.
RESULT TYPE: pIC50

Please list pIC50 recorded for the molecule C[C@@H]1CC[C@@H]2[C@H](C1)O[C@@H](c1ccc(NC(=O)C34CC5CC(CC(C5)C3)C4)s1)C[C@@]2(C)O [(4R)-13]
5.55

Please list pIC50 recorded for the molecule CC(=O)Nc1ccc([C@H]2C[C@@](C)(O)[C@@H]3CC[C@@H](C)C[C@H]3O2)s1 [(4R)-10]
5.54

Please list pIC50 recorded for the molecule C[C@@H]1CC[C@@H]2[C@@H](C1)O[C@@H](c1ccc(NC(=O)c3ccccc3)s1)C[C@@]2(C)O [(4R)-12]
5.48

Please list pIC50 recorded for the molecule C[C@@H]1CC[C@@H]2[C@@H](C1)O[C@@H](c1ccc(NC(=O)C(F)(F)F)s1)C[C@@]2(C)O [(4R)-11]
5.40

====

EXPERIMENTAL TARGET: human Tdp1 (residues 149-608) (Homo sapiens)
Sequence (Q9NUW8 149-608): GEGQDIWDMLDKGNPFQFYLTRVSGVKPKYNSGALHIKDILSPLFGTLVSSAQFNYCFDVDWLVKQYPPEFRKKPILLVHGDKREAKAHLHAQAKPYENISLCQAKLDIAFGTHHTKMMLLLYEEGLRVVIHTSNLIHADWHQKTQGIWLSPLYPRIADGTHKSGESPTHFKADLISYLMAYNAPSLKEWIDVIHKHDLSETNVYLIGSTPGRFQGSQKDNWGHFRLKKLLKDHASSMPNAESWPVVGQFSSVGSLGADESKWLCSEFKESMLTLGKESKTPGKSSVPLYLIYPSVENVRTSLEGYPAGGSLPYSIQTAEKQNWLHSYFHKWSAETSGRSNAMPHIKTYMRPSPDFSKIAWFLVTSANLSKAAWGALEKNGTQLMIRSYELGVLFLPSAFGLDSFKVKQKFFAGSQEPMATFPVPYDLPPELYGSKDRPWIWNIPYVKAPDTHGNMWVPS
pKd: −log10 of the molar value.
RESULT TYPE: pKd

The examples below pair each entry with its known result.
Please list pKd recorded for the compound C[C@@H]1CC[C@@H]2[C@H](C1)O[C@@H](c1ccc(NC(=O)C34CC5CC(CC(C5)C3)C4)s1)C[C@]2(C)O [(4S)-13]
4.75

Please list pKd recorded for the compound C[C@@H]1CC[C@@H]2[C@@H](C1)O[C@@H](c1ccc(NC(=O)C(F)(F)F)s1)C[C@@]2(C)O [(4R)-11]
4.70

[I] C[C@@H]1CC[C@@H]2[C@@H](C1)O[C@@H](c1ccc([N+](=O)[O-])s1)C[C@]2(C)O [(4S)-8]
[II] C[C@@H]1CC[C@@H]2[C@H](C1)O[C@@H](c1ccc(NC(=O)C34CC5CC(CC(C5)C3)C4)s1)C[C@@]2(C)O [(4R)-13]
[III] C[C@@H]1CC[C@@H]2[C@@H](C1)O[C@@H](c1ccc(NC(=O)C(F)(F)F)s1)C[C@]2(C)O [(4S)-11]
Rank by pKd (largest to smallest). Form entry: labels listed in requested order.
III, II, I
(III: 5.70, II: 4.91, I: 4.51)
